Assay: In vivo pharmacokinetics
Set-up: species or system ICR mice
Settings: ICR, mouse, plasma; IV 125 mg kg^−1, mice

| Molecule | half-life |
| --- | --- |
| CC(=O)C(C)CCC(=O)O (stereo not shown) | 7.2 min |

---

Assay: In vivo pharmacokinetics
Design: species or system ICR mice
Details: ICR, mouse, plasma; oral 500 mg kg^−1, mice
Method: The experiment was performed by Eurofins Panlabs Inc. Briefly, fasting pharmacokinetic parameters were obtained after administration of 125 mg kg^−1 i.v. or 500 mg kg^−1 p.o ERG240 to ICR mice and blood collection at 3, 10, 30, 60, 120 and 240 min (i.v. dosing) or 10, 30, 60, 120, 240 and 360 min (p.o. dosing). Each animal was subjected to a single blood draw and 3 animals per time point were used. […] B:acetonitrile/water/formic acid 1/99/0.02 (v/v/v)). […] The quantitation range was 5- 10000 ng/mL. […]

| Compound | Scale unit | Tmax |
| --- | --- | --- |
| CC(=O)C(C)CCC(=O)O (stereo not shown) | h | 1 |
